target_or_test_system: SARS-CoV-2 spike protein (wild type), spike protein trimer (SARS-CoV-2, UniProt P0DTC2 14-1208)
Reported pKd values are given for each entry in this list.
The quantity pKd is defined as the negative base-10 logarithm of the molar concentration.

Observe how each entry below is paired with its result.
anti-SARS-CoV-2 antibody 1037 (antibody, V domains shown) VH: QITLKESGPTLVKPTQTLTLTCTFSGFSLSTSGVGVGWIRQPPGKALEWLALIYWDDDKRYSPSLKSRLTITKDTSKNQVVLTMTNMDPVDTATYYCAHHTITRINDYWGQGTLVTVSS VL: QSALTQPASVSGSPGQSITISCTATSSDVGAYNYVSWYQQHPGKAPKLMIYDVSKRPSGVSNRFSGSKSGNTASLTISGLQAEDEADYYCSSYTSSSTVFGGGTKLTVL = 9.90
anti-SARS-CoV-2 antibody 1009 (antibody, V domains shown) VH: QLQLQESGPGLVKPSQTLSLTCTVSGGSISSGSYYWSWIRQPAGKGLEWIGSIYTSGSTYYNPSLKSRVTISVDTSKNQFSLKLSSVTAADTAVYYCARKNWLQGSFDYWGQGTLVIVSS VL: NFMLTQPHSVSESPGKTVTISCTRSSGSIANNYVQWYQQRPGSAPTTVIYEDNQRPSGVPDRFSGSIDSSSNSASLTISGLKTEDEADYYCQSYDTSNHGVFGGGTKLTVL = 9.77
anti-SARS-CoV-2 antibody 1193 (antibody, V domains shown) VH: EVQLVESGGGLVQPGGSLRLSCAASGFTFSSYYMNWVRQAPGKGLEWVSYISSGSSIIYYADSVKGRFTISRDNAKNSLYLQMNSLRDEDTAVYYCARDSPLRYFDWQLGGGFDYWGQGTLVTVSS VL: QSALTQPASVSGSPGQSITISCTGTSSDVGGYNYVSWYQQHPGKAPKLMIYDVSNRPSGVSNRFSGSKSGNTASLTISGLQAEDEADYYCSSYTSSSLWVFGGGTKLTVL = 9.75

Lab note: next binder to report on.
Need pKd, item anti-SARS-CoV-2 antibody 1075 (antibody, V domains shown) VH: QVQLVQSGAEVKKPGASVKVSCKVSGYTLIELSMHWVRQAPGKGLEWMGGFDPEDGETIYAQKFQGRVTMTEDTSTDTAYMELSSLRSEDTAVYYCATEWAYYGSGSYLGYWGQGTLVTVSS VL: EIVMTQSPATLSVSPGERATLSCRASQSVSSNLAWFQQKPGQAPRLLIYGASTRVTVIPARFSGSGSGTEFTLTISSLQSEDFAVYYCQQYNNWPRTFGQGTKVEIK
10.03
